Origin of the recorded values: PubChem BioAssay (NCI)

- System: SF-295 CNS
- measurement_notes: NCI-60 one-dose screen, 48 h (100 = growth as untreated, 0 = no growth, -100 = all killed)
- condition_summary: 10 µM unless noted
The panel holds about 83,000 compounds, 20% with a hit somewhere; the sample as a whole holds those more often.
T means recorded growth is 90% or above; F means it is below 90%.

molecule: CC(Br)C(O)c1cc2c(cc1Br)OCO2 (stereo unspecified)
label: T

molecule: FC(F)(F)c1cccc(-n2nnc3cnc(Nc4ccc(N5CCCCC5)cc4)nc32)c1
label: T

molecule: O=c1[nH]c(-c2cn(-c3ccc(Cl)cc3)nn2)nc2ccccc12
label: F

molecule: CC1=CNNc2c3ncnc-3ncn21
label: T

molecule: COc1ccc(NC(=O)c2cc3ccccc3nc2Nc2cc(OC)c(OC)c(OC)c2)cc1
label: F

molecule: CN(C)c1ccc(C2CC(c3ccccc3)=NN2/C=C2\SC(=O)NC2=O)cc1 (stereo unspecified)
label: T

molecule: Nc1cc2c(cc1N)-c1cc(N)c(N)cc1C2
label: T

molecule: Cc1cc(C(=O)O)c(N)c(C)n1
label: T

molecule: Cc1ccc(S(=O)(=O)N2CCC(C(=O)Nc3ccc(F)cc3F)CC2)cc1
label: F

molecule: COc1ccc(-c2nc3sccn3c2-c2ccnc(NCCCNS(=O)(=O)c3ccc(C)cc3)n2)cc1
label: F

molecule: COc1cc(Br)c(OC)cc1Br
label: T

----------
- System: SNB-19 CNS
- measurement_notes: NCI-60 one-dose screen, 48 h (100 = growth as untreated, 0 = no growth, -100 = all killed)
- condition_summary: 10 µM unless noted
The panel holds about 83,000 compounds, 20% with a hit somewhere; the sample as a whole holds those more often.
# label = 1 (yes) if growth >= 60% else 0 (no)

molecule: O=C(CCCn1c2c(sc3ccccc32)c(=O)n2nnc(-c3ccccc3)c12)NCCc1cnc[nH]1
experimental_system: SNB-19 CNS
label: 0 (no)
//
molecule: CC(C)N(Cc1ccc(CN(C(=O)CCl)C(C)C)cc1)C(=O)CCl
experimental_system: SNB-19 CNS
label: 1 (yes)
//
molecule: COc1ccc(-c2nc(-c3nc4ccc(F)cc4[nH]3)cc3c2[nH]c2ccccc23)cc1
experimental_system: SNB-19 CNS
label: 1 (yes)
//
molecule: Cc1c(C2=NNC(c3ccc4c(c3)OCO4)C2)[n+]([O-])c2ccccc2[n+]1[O-] (stereo not drawn)
experimental_system: SNB-19 CNS
label: 1 (yes)
//
molecule: CCCCCCCCCCCCOB(OCCCCCCCCCCCC)OCCCCCCCCCCCC
experimental_system: SNB-19 CNS
label: 1 (yes)
//
molecule: Nc1c(C(=O)Nc2ccccc2)sc2nc3c(cc12)CN(Cc1ccccc1)CC3
experimental_system: SNB-19 CNS
label: 1 (yes)
//
molecule: CNC(=O)c1cc(Oc2ccc3c(c2)sc2nc(-c4ccc(Cl)cc4)cn23)ccn1
experimental_system: SNB-19 CNS
label: 0 (no)
//
molecule: CCCC1OC(c2ccc(C(C)C)cc2)OCC1CC (stereo not drawn)
experimental_system: SNB-19 CNS
label: 1 (yes)
//
molecule: COc1cc(C2C3=C(COC3=O)Nc3c2ccc2c3CCCC2)cc2c1OCO2 (stereo not drawn)
experimental_system: SNB-19 CNS
label: 0 (no)
//
molecule: Oc1ccc(N=Cc2ccccc2)cc1
experimental_system: SNB-19 CNS
label: 1 (yes)
//
molecule: CCCCn1c(=O)c(C2CNC(=O)c3ccccc3N2)cc2ccccc21 (stereo not drawn)
experimental_system: SNB-19 CNS
label: 1 (yes)
//
molecule: CS(=O)(=O)N(c1cc(-c2ccc3ncnc(Nc4cccc(Cl)c4)c3c2)cnc1Cl)S(C)(=O)=O
experimental_system: SNB-19 CNS
label: 0 (no)
//
molecule: C=CCOc1cccc(/C=C/C(=O)c2sc(Nc3cccnc3)nc2C)c1
experimental_system: SNB-19 CNS
label: 0 (no)
//
molecule: CC[C@H](C)[C@H]1NC(=O)[C@@H](N[C@](C)(O)[C@@H](N)CC(C)C)[C@@H](C)OC(=O)[C@H](Cc2ccc(OC)cc2)N(C)C(=O)[C@@H]2CCCN2C(=O)[C@H](CC(C)C)NC(=O)[C@@H](C)C(=O)[C@H](C(C)C)OC(=O)C[C@@H]1O
experimental_system: SNB-19 CNS
label: 0 (no)
//
molecule: COc1cccc(-c2nc3sccn3c2-c2ccnc(NCCNS(=O)(=O)c3ccccc3)n2)c1
experimental_system: SNB-19 CNS
label: 1 (yes)
//
molecule: Cc1nc2sccn2c1-c1csc(Nc2ccccc2Cl)n1
experimental_system: SNB-19 CNS
label: 1 (yes)
//
molecule: Cc1cccc2cc(/C=C/C(=O)/C=C/c3ccc(Cl)cc3)c(=O)[nH]c12
experimental_system: SNB-19 CNS
label: 0 (no)
//
molecule: COC(=O)c1cc(-c2cccs2)c(C#N)c(N)c1C#N
experimental_system: SNB-19 CNS
label: 1 (yes)
//
molecule: CC1=C(C#N)C(C)(C)C(C#N)=C(C)N1
experimental_system: SNB-19 CNS
label: 1 (yes)
//
molecule: Cc1ccc(C2=NN(c3ccc(S(N)(=O)=O)cc3)C(c3cn(-c4ccccc4)nc3-c3ccccc3)C2)cc1 (stereo not drawn)
experimental_system: SNB-19 CNS
label: 1 (yes)
//
molecule: CC(Br)C(OC(=O)c1ccccc1Cl)c1cc2c(cc1Br)OCO2 (stereo not drawn)
experimental_system: SNB-19 CNS
label: 1 (yes)
//
molecule: N#Cc1ccc(NC(=O)c2ccc3cccnc3c2O)cc1
experimental_system: SNB-19 CNS
label: 0 (no)
//
molecule: COc1ccc(OC)c(-c2ccc(-c3ccccc3N)c3[nH]c4ccccc4c23)c1
experimental_system: SNB-19 CNS
label: 1 (yes)
//
molecule: C/C(=C\c1csc(C)n1)[C@@H]1C[C@@H]2O[C@]2(C)CCC[C@H](C)[C@H](O)[C@@H](C)C(=O)C(C)(C)[C@@H](O)CC(=O)N1
experimental_system: SNB-19 CNS
label: 0 (no)
//
molecule: CCOC(=O)C1=C(C)NC(=O)NC1c1ccc(OCC(=O)N/N=C/c2ccc(Cl)cc2)cc1 (stereo not drawn)
experimental_system: SNB-19 CNS
label: 1 (yes)
//
molecule: Cc1ccc(OCCn2c(C)nn(-c3ccc(Cl)cc3)c2=O)cc1
experimental_system: SNB-19 CNS
label: 1 (yes)
//
molecule: CCCCNC(=O)NS(=O)(=O)c1ccc(N2N=C(c3ccc(C)cc3C)CC2c2ccc(OC)cc2)cc1 (stereo not drawn)
experimental_system: SNB-19 CNS
label: 1 (yes)
//
molecule: CC(C)(C)c1cn2cccc(C(=O)N3CCN(CC(=O)Nc4ccc(Cl)cc4C(=O)c4ccccc4Cl)CC3)c2n1
experimental_system: SNB-19 CNS
label: 1 (yes)
//
molecule: CC(=O)Nc1ccc(S(=O)(=O)NC(CCC(=O)Nc2ccc(Cl)cc2)C(=O)O)cc1 (stereo not drawn)
experimental_system: SNB-19 CNS
label: 1 (yes)
//
molecule: O=C(Nc1cc(C(F)(F)F)cc(C(F)(F)F)c1)Nc1ccc(OCc2nnc(-c3ccc(Cl)cc3)o2)c(F)c1
experimental_system: SNB-19 CNS
label: 0 (no)
//
molecule: Nc1c(C(=O)c2ccc(F)cc2)sc2nc3c(cc12)CCCC3
experimental_system: SNB-19 CNS
label: 1 (yes)
//
molecule: CC(=O)Nc1ccc(S(=O)(=O)N2C(=O)CCC2C(=O)Nc2ccccc2)cc1 (stereo not drawn)
experimental_system: SNB-19 CNS
label: 0 (no)
//
molecule: COc1ccc(/C=C/C(=O)c2ccc(B(O)O)cc2)cc1O
experimental_system: SNB-19 CNS
label: 1 (yes)
//
molecule: O=[N+]([O-])c1cccc(-c2cc(-c3cc(Br)ccc3O)[nH]n2)c1
experimental_system: SNB-19 CNS
label: 0 (no)
//
molecule: O=c1oc2cc(OS(=O)(=O)c3ccccc3)c(Cl)cc2c2c1CCCCCC2
experimental_system: SNB-19 CNS
label: 1 (yes)
//
molecule: C=C1C(=O)O[C@H]2[C@H]1CC/C(COC(=O)NCCc1ccc(OC)cc1)=C\CC[C@@]1(C)O[C@@H]21
experimental_system: SNB-19 CNS
label: 0 (no)
//
molecule: CC/C=C\C[C@H]1C/C=C2/C(=O)C(Cl)=C[C@@H]2C/C=C\CCCC(=O)O1
experimental_system: SNB-19 CNS
label: 0 (no)

----------
Recorded growth, one value per entry.
- Test system: SK-OV-3 ovarian
- measurement_notes: NCI-60 one-dose screen, 48 h (100 = growth as untreated, 0 = no growth, -100 = all killed)
- condition_summary: 10 µM unless noted
About 83,000 compounds went through this panel and 20% of them were active in at least one assay; those are over-represented in the sample as a whole. Active and inactive are the calls of the source. Rule for the calls: active = growth percent below 10; inactive = the rest.

compound_smiles: COc1cc(-c2nc(-c3nc4ccccc4[nH]3)cc3c2[nH]c2ccccc23)cc(OC)c1OC
growth: 104% (inactive)

compound_smiles: O=C(Nc1ccc(Br)c(Cl)c1)c1cc(F)ccc1O
growth: 3.58% (active)

compound_smiles: O=C(O)Cc1ccc2c(c1)Cc1cccnc1O2
growth: 103% (inactive)

compound_smiles: COc1ccccc1OCC(=O)Nc1sc2c(c1C(N)=O)CCC2
growth: 69.9% (inactive)

compound_smiles: COc1ccc(C(=O)N2CCN(C(=O)c3cc(OC)c(OC)c(OC)c3)CC2)cc1OCCCCOc1cc2c(cc1OC)C(=O)N1CCC[C@H]1C=N2
growth: 108% (inactive)

compound_smiles: CN(C)CCCNC(=O)C(c1ccccc1)c1ccccc1
growth: 112% (inactive)

compound_smiles: COc1ncc(-c2ccc3ncnc(Nc4cccc(Cl)c4)c3c2)cc1NS(=O)(=O)CCN1CCOCC1
growth: -25.9% (active)

compound_smiles: COc1ccc(-c2cn[nH]c2-c2cc(OC)c3c(c2)OCO3)cc1
growth: -1.1% (active)

compound_smiles: CCCCCCOc1ccc(C2(Cl)c3ccccc3N(C)c3ccccc32)cc1
growth: 60.7% (inactive)

compound_smiles: Nc1nc(Cl)c2c(ncn2Cc2ccc(CCl)cc2)n1
growth: 103% (inactive)
